These data points were gathered from patent US20260151494A1.

# subject_of_test: T1, human CD71 extracellular domain (human, UniProt P02786 89-760)
# T1 construct: also called hCD71; CD71-ECD
# method_summary: primary ELISA; signal over HSA control
readout_name: hCD71:HSA (ratio)
Value expressed in ratio; do not type the unit.

Use the examples below as a reference point.
INSERT INTO measurements (binder, unit_info, experimental_value) VALUES
  ('CD71-binding FN3 domain SEQ ID NO 380 (designed binder) MLPAPKNLVVSRVTEDSARLSWTAPDAAFDSFFIGYLEPQPPGEAIGLFVPGSERSYDLTGLKPGTEYNVTIQGVKGGFPSMPLSAIFTT', 'ratio', 21),
  ('CD71-binding FN3 domain SEQ ID NO 417 (designed binder) MLPAPKNLVVSRVTEDSARLSWTAPDAAFDSFFIGYLEPQPPGEAIQLFVPGSERSYDLTGLKPGTEYNVTIQGVKGGFPSDPLVASFTT', 'ratio', 305),
  ('CD71-binding FN3 domain SEQ ID NO 356 (designed binder) MLPAPKNLVVSRITEDSARLSWTAPDAAFDSFFIGYLEPQPPGEAITLLVPASERSYDLTGLKPGTEYNVTIQGVKGGFPSHPLQAQFTT', 'ratio', 207);

Determine its reported hCD71:HSA: CD71-binding FN3 domain SEQ ID NO 440 (designed binder) MLPAPKNLVVSRVTEDSARLSWTAPDAAFDSFEIVYAEWTQHGEAIVLTVPGSERSYDLTGLKPGTEYYVHIGGVKGGKWSPPLYAIFTT 89

Determine its reported hCD71:HSA: CD71-binding FN3 domain SEQ ID NO 359 (designed binder) MLPAPKNLVVSRVTEDSARLSWTAPDAAFDSFLIPYAETSPSGEAIVLTVPGSERSYDLTGLKPGTEYSVLIHGVKGGDYSSPLSAIFTT 120

Determine its reported hCD71:HSA: CD71-binding FN3 domain SEQ ID NO 397 (designed binder) MLPAPKNLVVSRVTEDSARLSWTAPDAAFDSFIILYGEAQYDGEAIVLTVPGSERSYDLTGLKPGTEYPVDIYGVKGGPYSWPLSAIFTT 25
